System: MS2 coat protein
Experiment: apparent Kd, MS2 coat protein; higher = weaker binding; RNA-MaP array
Details: designed as: OFF switch for tryptophan; no ligand
measured_endpoint: apparent Kd (nM)
Numbers only, in nM.

Consider the reported apparent Kd for these sequences:
| residues | value_unit | apparent Kd |
| --- | --- | --- |
| UUGUGGUAGGCGCAUACUCAUUUAUACAAGCGAGGACCGGUACGGCCGCCACUCGGAAUAAAACAUGAGGAUCACCCAUGUACCG | nM | 13.7 |
| CUCGUCAACUCGGCCGCCACUGACGUGUGGUCAGGCCUGUAGAAACACAUGAGGAUCACCCAUGUCAGGACCGGGAGCUUUAUUA | nM | 46.9 |
| ACUUGUGAGUCGGCCGCCACUCACCGGUAGUGUCACUCGUUCACAAACAUGAGGAUCACCCAUGUGAGGACCGGGACAGUCGGGU | nM | 17.2 |

Now let's try a different one.
Name the recorded apparent Kd for `ACCAACCACACCCUUCACUGUUUUCGCCGCCGAGGACCGGUACGGCCGCCACUCGUACAAAGACAUGAGGAUCACCCAUGUGCCU` . 14.5
